Procedure Text: in vitro
Condition Info: Sprague-Dawley, rat, microsomes
Readout Label: microsomal CLint at […] (µL/min/mg)
The response must be a number in µL/min/mg with no trailing unit.

[in] Form field: reported microsomal CLint at […] of C[C@]12CC[C@H]3[C@@H](CCC4=CC(=O)CC[C@@]43C)[C@@H]1CC[C@@H]2O
[out] 597

[in] Would you mind doing N#Cc1ccc2[nH]cc(CCCCN3CCN(c4ccc5oc(C(N)=O)cc5c4)CC3)c2c1 as well?
[out] 31.6

---

I'd appreciate it if you could supply pIC50 values for the items below.
Assay System: Acetylcholinesterase (Mus musculus)
Sequence (P21836 whole entry): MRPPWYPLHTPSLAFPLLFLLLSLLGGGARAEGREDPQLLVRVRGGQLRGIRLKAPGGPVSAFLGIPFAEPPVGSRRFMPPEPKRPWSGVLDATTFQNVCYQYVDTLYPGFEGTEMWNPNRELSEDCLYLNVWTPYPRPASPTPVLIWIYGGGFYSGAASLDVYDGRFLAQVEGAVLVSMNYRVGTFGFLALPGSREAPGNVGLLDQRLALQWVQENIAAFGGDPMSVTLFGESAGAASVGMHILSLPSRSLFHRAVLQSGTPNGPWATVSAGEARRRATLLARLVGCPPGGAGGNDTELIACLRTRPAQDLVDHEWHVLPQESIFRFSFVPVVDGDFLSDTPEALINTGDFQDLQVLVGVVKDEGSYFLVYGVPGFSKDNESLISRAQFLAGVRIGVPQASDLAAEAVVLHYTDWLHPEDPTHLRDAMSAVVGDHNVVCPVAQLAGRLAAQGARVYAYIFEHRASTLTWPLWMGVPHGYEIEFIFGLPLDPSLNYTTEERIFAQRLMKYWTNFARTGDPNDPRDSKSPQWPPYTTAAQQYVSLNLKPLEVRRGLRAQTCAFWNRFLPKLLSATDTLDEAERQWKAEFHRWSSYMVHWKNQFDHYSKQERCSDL
Worth noting: pIC50 values are minus log10 of concentrations stated in mol/L.

[in] // lookup pIC50 | system=Acetylcholinesterase (Mus musculus) | key= N#Cc1ccc2[nH]cc(CCCN3CCN(c4ccc(C(=O)CCC5CCN(Cc6cc[nH]c6)CC5)cc4)CC3)c2c1
[out] 8.49

[in] Would you mind doing N#Cc1ccc2[nH]cc(CN3CCN(c4ccc5c(c4)CC(CC4CCN(Cc6ccccc6)CC4)C5=O)CC3)c2c1 (centres undefined) as well?
[out] 8.18

[in] Would you mind doing N#Cc1ccc2[nH]cc(CCCCN3CCN(c4ccc(C(=O)CCC5CCN(CC6CCCC6)CC5)cc4)CC3)c2c1 as well?
[out] 7.39

[in] Would you mind doing N#Cc1ccc2[nH]cc(CCCCN3CCN(c4ccc(C(=O)CCC5CCN(Cc6ccc(F)cc6)CC5)cc4)CC3)c2c1 as well?
[out] 7.49

Reference source: ChEMBL document CHEMBL5046241
